Consider the following compounds and their measured viability at 48 h, 25 µM readings.
- measurement-notes: in vitro
- test-parameters: human, hek293t cells
measured-attribute: viability at 48 h, 25 µM (%)

>>> df
                                   compound  value
0  CN1C(=O)c2ccccc2C1CNC(=O)CCl (stereo not drawn)   4.11
1  C=CC(=O)N(CC)CC(=O)N1CCNC(=O)CC1c1ccccc1 (stereo not drawn)   33.1
2             COc1ccc(C(=O)CCl)c2c1C(=O)CO2   92.2
3          Cn1cc(C=C(C#N)C(=O)NCc2ccco2)cn1   89.4
4      CN(C)c1ccc(C=C(C#N)C(=O)Nc2nccs2)cc1   75.1
5               O=C(CCl)NC1CCN(Cc2cscn2)CC1  0.789

The measured values listed here are drawn from paper PMC11995724.
